The compounds listed here are annotated with their %Inh.
Tested on: PIK3CB
Conditions: concentration: 1 μM, replicates: in singlicate; n = 1;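 further: KINOMEscan kinase panel screen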
Your answer is read as %, so omit the unit and give the number.

Query Cc1cccc(Nc2nc(N[C@H]3CCNC3)ncc2C(N)=O)c1.Cl yields %Inh of 0

New cases:
Query Cn1cc(-c2ccc3c(c2)CCN3C(=O)Cc2cccc(Cl)c2)c2c(N)ncnc21 yields %Inh of 15

Query CC(C)c1nc(-c2cccc(NS(=O)(=O)c3c(F)cccc3F)c2F)c(-c2ccnc(Nc3ccc(N4CCOCC4)nc3)n2)s1 yields %Inh of 0

* * *

Test system: RSK3(Kin.Dom.1-N-terminal)
Construct: gene RPS6KA2
Conditions: concentration: 1 μM, replicates: in singlicate; n = 1
Measured attribute: %Inh (%)
Your answer is read as %, so omit the unit and give the number.

In the examples that follow, each entry is paired with its recorded %Inh.
Query COc1cc(Nc2nccc(-c3c(-c4cccc(NC(=O)c5c(F)cccc5F)c4)nn4ccccc34)n2)cc(OC)c1OC [GSK323521] yields %Inh of 25

Query Fc1ccc(-c2ncn(C3CCNCC3)c2-c2ccnc(Oc3ccc(-c4ccccc4)cc3)n2)cc1 [SB-245391] yields %Inh of 0

Query FC(F)(F)c1ccc(/C=C/c2cncnc2Nc2ccc3[nH]c(Cc4ccccc4)nc3c2)cc1 [GW709199] yields %Inh of 13

Query c1ccc(-c2n[nH]cc2Nc2ccnc3ccccc23)nc1 [GW694077] yields %Inh of 0

Query Nc1ncc(-c2cccnc2)c2scc(-c3ccc4c(c3)CCN4C(=O)Cc3ccccc3)c12 [GSK683281] yields %Inh of 14

Query O=C(Nc1n[nH]c2cc(-c3ccoc3)ccc12)C1CC1 [SB-738481] yields %Inh of 0

Query Cc1cccc(Nc2nc(N[C@H]3CCNC3)ncc2C(N)=O)c1.Cl [GSK2197149] yields %Inh of 23

Query Cl.Cl.NCC(NCc1ccc(-c2ccnc3[nH]ccc23)s1)c1ccccc1 (stereo not shown) [GSK1321565] yields %Inh of 39

New cases:
Query Cc1ccc(C(=O)N2CC[C@@H](O)C2)cc1-n1c(C)cc(OCc2ccc(F)cc2F)c(Br)c1=O yields %Inh of 0

Query COc1ccc(Nc2nccc(N3CCC(NC(=O)Nc4cccc(OC)c4)C3)n2)cc1 (stereo not shown) [GSK1379742] yields %Inh of 0

* * *

Test system: ERN1
Conditions: concentration: 1 μM, replicates: in singlicate; n = 1
Measured attribute: %Inh (%)
Your answer is read as %, so omit the unit and give the number.

Query O=C(Nc1cccc(Oc2ccc3nc(NC(=O)C4CC4)cn3n2)c1)c1ccccc1C(F)(F)F yields %Inh of 0

Query CC(C)c1nc(-c2cccc(NS(=O)(=O)c3c(F)cccc3F)c2F)c(-c2ccnc(Nc3ccc(N4CCOCC4)nc3)n2)s1 yields %Inh of 65

Query Cl.NC(=O)c1cccc(Nc2nccc(Nc3ccc(Oc4c(Cl)cccc4Cl)c(Cl)c3)n2)c1 yields %Inh of 12

Query COc1cccc(NC(=O)NC2CCN(c3ccnc(Nc4cc(OC)c(OC)c(OC)c4)n3)C2)c1 (centres unmarked) yields %Inh of 7

Query Cc1ccc(C)c(NC(=O)NC2CCN(c3ccnc(Nc4ccc(F)cc4)n3)C2)c1 (centres unmarked) yields %Inh of 3

Query Nc1ncc(-c2ccc3nccc(-c4ccncc4)c3c2)cc1S(=O)(=O)N1CCOCC1 yields %Inh of 0

Query O=C(Nc1cccc(-c2nn3ncccc3c2-c2ccnc(Nc3ccccc3)n2)c1)c1c(F)cccc1F yields %Inh of 32

Now look at this entry.
Query CSc1cccc2c(-c3ccncn3)c(-c3ccc(F)cc3)nn12 yields %Inh of 12

* * *

System: WNK4
Details: concentration: 1 μM, replicates: in singlicate; n = 1
%Inh strictly less than 8% = satisfied. Otherwise not satisfied.

Look over these answered cases.
Exercise: Is it true that %Inh reported for CC(=O)N1CCN(c2ccc(Nc3nccc(-c4sc(C(C)C)nc4-c4cccc(NS(=O)(=O)c5cccc(Cl)c5)c4)n3)cn2)CC1 [GSK1660437] is less than 8%?
Solution: satisfied

Exercise: Is it true that %Inh reported for Cc1ccc(C(=O)N2CC[C@@H](O)C2)cc1-n1c(C)cc(OCc2ccc(F)cc2F)c(Br)c1=O is less than 8%?
Solution: satisfied

Exercise: Is it true that %Inh reported for CNC(=O)c1ccccc1Nc1nc(Nc2ccc(N3CCOCC3)cc2)ncc1Cl.Cl [GSK1576028] is less than 8%?
Solution: satisfied

Exercise: Is it true that %Inh reported for O=C(NC1CCN(c2ccnc(Nc3ccc(F)cc3)n2)C1)c1cc2ccccc2s1 (stereo not shown) [GSK1379716] is less than 8%?
Solution: not satisfied

Exercise: Is it true that %Inh reported for CC(C)c1nc(-c2cccc(NS(=O)(=O)c3c(F)cccc3F)c2F)c(-c2ccnc(Nc3ccc(N4CCOCC4)nc3)n2)s1 [GSK2008607] is less than 8%?
Solution: not satisfied

Exercise: Is it true that %Inh reported for CCc1ccc(-c2ccc3c(c2)-c2c(cnn2C)S(=O)(=O)N3C)cc1 is less than 8%?
Solution: satisfied

Exercise: Is it true that %Inh reported for Cc1occc1-c1ncc(OC[C@@H](N)Cc2c[nH]c3ccccc23)cc1-c1ccc2[nH]nc(C)c2c1.O=C(O)C(F)(F)F [GSK682037] is less than 8%?
Solution: satisfied

Exercise: Is it true that %Inh reported for Cc1ccc(C)c(NC(=O)NC2CCN(c3ccnc(Nc4ccc(F)cc4)n3)C2)c1 (stereo not shown) [GSK1379720] is less than 8%?
Solution: not satisfied

New cases:
Exercise: Is it true that %Inh reported for Cc1cccc(Nc2nc(N[C@H]3CCNC3)ncc2C(N)=O)c1.Cl [GSK2197149] is less than 8%?
Solution: satisfied

Exercise: Is it true that %Inh reported for O=C(Nc1n[nH]c2nc(-c3ccc(O)cc3)ccc12)C1CC1 [SB-710363] is less than 8%?
Solution: not satisfied

Exercise: Is it true that %Inh reported for COc1ccc(Nc2nccc(NCCNC(=O)c3cc4ccccc4s3)n2)cc1 [GSK1379896] is less than 8%?
Solution: not satisfied

* * *

Tested on: CDKL1
Settings: concentration: 1 μM, replicates: in singlicate; n = 1
Measured attribute: %Inh (%)
Your answer is read as %, so omit the unit and give the number.

In the examples that follow, each entry is paired with its recorded %Inh.
Query CCn1c(-c2nonc2N)nc2c(C#CC(C)(C)O)nc(OC[C@H](N)c3ccccc3)cc21 [GSK943949] yields %Inh of 0

Query COc1cc(Nc2nccc(N3CCC(NC(=O)Nc4cccc(C(C)=O)c4)C3)n2)cc(OC)c1OC (stereo not shown) [GSK1379753] yields %Inh of 17

Query C[C@@H](Oc1cc(-n2cnc3cc(-c4ccnc(NCCS(C)(=O)=O)c4)ccc32)sc1C(N)=O)c1ccccc1Cl [GSK907232] yields %Inh of 4

Now look at this entry.
Query Cc1ccc(C(=O)N2CC[C@@H](O)C2)cc1-n1c(C)cc(OCc2ccc(F)cc2F)c(Br)c1=O yields %Inh of 14

* * *

System: ROCK1
Conditions: concentration: 1 μM, replicates: in singlicate; n = 1
The compounds listed here are annotated with their %Inh.
Your answer is read as %, so omit the unit and give the number.

Query Fc1ccc(-c2ncn(C3CCNCC3)c2-c2ccnc(Oc3ccc(-c4ccccc4)cc3)n2)cc1 yields %Inh of 0

Query Cn1cc(-c2ccc3c(c2)CCN3C(=O)Cc2cccc(F)c2)c2c(N)ncnc21 yields %Inh of 9

Query Cc1cccc(Nc2nc(N[C@H]3CCNC3)ncc2C(N)=O)c1.Cl yields %Inh of 67

Query Cl.c1ccc(-c2ccc3c(Nc4ccc5[nH]ccc5c4)ccnc3c2)nc1 yields %Inh of 23

Query COc1ccc(Nc2nccc(NCCNC(=O)c3cc4ccccc4s3)n2)cc1 yields %Inh of 13

Query Cl.Cl.NCC(NC(=O)c1cc(-c2ccccc2)c(-c2ccnc3[nH]ccc23)s1)c1ccccc1 (stereo not drawn) yields %Inh of 99.8

New cases:
Query Cl.Cl.NCC(NCc1ccc(-c2ccnc3[nH]ccc23)s1)c1ccccc1 (stereo not drawn) yields %Inh of 100

* * *

The compounds listed here are annotated with their %Inh.
Test system: MAP4K4
Settings: concentration: 1 μM, replicates: in singlicate; n = 1
Your answer is read as %, so omit the unit and give the number.

In the examples that follow, each entry is paired with its recorded %Inh.
Query CN(C)S(=O)(=O)c1cc(-c2ccc3nccc(-c4cccc(S(N)(=O)=O)c4)c3c2)cnc1N [GSK1669921] yields %Inh of 0

Query O=c1[nH]cc(-c2ccc(N3CCOCC3)cc2)c2sc(-c3cn[nH]c3)cc12 [GSK2276055] yields %Inh of 1

Query Cl.c1ccc(-c2ccc3c(Nc4ccc5[nH]ncc5c4)ccnc3c2)nc1 [GW440137] yields %Inh of 0

New cases:
Query CC(C)c1nc(-c2cccc(NS(=O)(=O)c3c(F)cccc3F)c2F)c(-c2ccnc(Nc3ccc(N4CCOCC4)nc3)n2)s1 [GSK2008607] yields %Inh of 40

Query CN1CCN(Cc2cccc(-c3ccc4c(Nc5ccc(Oc6ccccc6)cc5)ccnc4c3)c2)CC1 [GW578342] yields %Inh of 0

Query Cc1occc1-c1ncc(OC[C@@H](N)Cc2c[nH]c3ccccc23)cc1-c1ccc2[nH]nc(C)c2c1.O=C(O)C(F)(F)F [GSK682037] yields %Inh of 99.2

Query COc1cc(Nc2nccc(-c3c(-c4cccc(NC(=O)c5c(F)cccc5F)c4)nn4ncccc34)n2)cc(OC)c1OC [GSK327238] yields %Inh of 67

Query c1ccc(-c2cnc3nccnn23)cc1 [AH20685] yields %Inh of 0

Query CN(C)Cc1ccc(-c2ccc3c(Nc4ccc(Oc5ccccn5)cc4)ccnc3c2)o1 [GW567148] yields %Inh of 6

Query Cc1cccc(NC(=O)Nc2ccc(Oc3ncnc4ccn(C)c34)cc2)c1 yields %Inh of 0

Query CC(C)(C)c1ccc2nccc(Nc3cccc(O)c3)c2c1 [GW856795] yields %Inh of 23

Query O=C(Nc1cccc(Oc2ccc3nc(NC(=O)C4CC4)cn3n2)c1)c1ccccc1C(F)(F)F yields %Inh of 8

Query CCc1ccc(-c2ccc3c(c2)-c2c(cnn2C)S(=O)(=O)N3C)cc1 yields %Inh of 0

Query COc1cccc(C2=C(Nc3ccc(Cl)c(C(=O)O)c3)C(=O)NC2=O)c1 [SB-390769] yields %Inh of 100

Query COC(=O)Nc1nc2ccc(Oc3ccc(NC(=O)Nc4cc(C(F)(F)F)ccc4F)cc3)cc2n1C.Cl [GW692089] yields %Inh of 0

Query COc1ccc(-c2coc3ccc(-c4nnc(SCc5ccc(OC)c(C(F)(F)F)c5)o4)cc23)cc1 yields %Inh of 6

Query Cn1cc(-c2ccc3c(c2)CCN3C(=O)Cc2cccc(F)c2)c2c(N)ncnc21 [GSK2603358] yields %Inh of 0
